Provenance of the data: paper PMC4608554

- protocol.notes: Tissue distribution/metabolism of chelators in rats
- Format: in vivo, rat (male Sprague-Dawley)
- details: rat kidney, 0.5 h after 11 sc 300 µmol/kg

# compound, concentration in kidney
measured = [
    ("C[C@]1(C(=O)O)CSC(c2ccc(OCC(=O)O)cc2O)=N1 [compound 14]", "156 nmol/g wet weight"),
    ("C[C@]1(C(=O)O)CSC(c2ccc(OCCCCCC(=O)O)cc2O)=N1 [compound 12]", "found"),
    ("C[C@]1(C(=O)O)CSC(c2ccc(OCCCC(=O)O)cc2O)=N1 [compound 13]", "~ 300 nmol/g wet weight"),
]
